Target: human GPR40 (Homo sapiens)
Test: Cell-based aequorin assay using human GPR40
Conditions: CHO cells transfected with GPR40 and aequorin expression vectors; aequorin luminescence; activation of human GPR40; read-out: Relative EC50
pEC50: −log10 of the molar value.
Below is a list of entries, each paired with its recorded pEC50 value.
property: pEC50

molecule	study_system	measured_value
C=C(c1ccc(Oc2ccccc2)cc1)c1ccc2c(c1)CCCC2CC(=O)O (racemic)	human GPR40 (Homo sapiens)	5.00 to 6.00
COc1cccc(-c2ccc(COc3ccc4c(c3)CCCC4CC(=O)O)cc2)c1 (centres unmarked)	human GPR40 (Homo sapiens)	> 7.00
COc1cccc(-c2ccc(COc3ccc4c(c3)CCC[C@H]4CC(=O)O)cc2)c1	human GPR40 (Homo sapiens)	5.00 to 6.00
Cc1ccc(-c2nc(C)c(COc3ccc4c(c3)C(CC(=O)O)CCC4)s2)cc1 (centres unmarked)	human GPR40 (Homo sapiens)	5.00 to 6.00
C=C1CCc2cc(OCc3cccc(-c4ccc(C(F)(F)F)cc4)c3)ccc2C1CC(=O)O (centres unmarked)	human GPR40 (Homo sapiens)	6.00 to 7.00
CCOc1ccccc1-c1ccc(COc2ccc3c(c2)CCCC3CC(=O)O)cc1 (centres unmarked)	human GPR40 (Homo sapiens)	6.00 to 7.00
Cc1ccc(-c2nc(C)c(COc3ccc4c(c3)CCCC4CC(=O)O)s2)cc1 (centres unmarked)	human GPR40 (Homo sapiens)	6.00 to 7.00
C=C1CCOc2cc(OCc3ccccc3)ccc2C1CC(=O)O (racemic)	human GPR40 (Homo sapiens)	6.00 to 7.00
Cc1ccc(-c2nc(C)c(COc3ccc4c(c3)CCCC4C(F)(F)C(=O)O)s2)cc1 (centres unmarked)	human GPR40 (Homo sapiens)	5.00 to 6.00
Cc1c(Cl)cccc1-c1cccc(COc2ccc3c(c2)OCC[C@@H](C(=O)O)C3)c1	human GPR40 (Homo sapiens)	6.00 to 7.00
O=C(O)[C@@H]1CCOc2cc(OCc3cccc(-c4ccc(C(F)(F)F)cc4)c3)ccc2C1	human GPR40 (Homo sapiens)	5.00 to 6.00
CCCCOc1ccc(C)cc1-c1ccc(COc2ccc3c(c2)CC(CC(=O)O)CC3)cc1 (centres unmarked)	human GPR40 (Homo sapiens)	5.00 to 6.00
CCOc1ccccc1-c1ccc(COc2ccc3c(c2)CC(C)C3CC(=O)O)cc1 (mixture of isomers)	human GPR40 (Homo sapiens)	5.00 to 6.00
O=C(O)CC1COCc2cc(OCc3cccc(-c4ccc(C(F)(F)F)cc4)c3)ccc21 (centres unmarked)	human GPR40 (Homo sapiens)	6.00 to 7.00
O=C(O)C1CCc2cc(OCc3cccc(-c4ccc(C(F)(F)F)cc4)c3)ccc2C1 (centres unmarked)	human GPR40 (Homo sapiens)	5.00 to 6.00
C=C(c1ccc(-c2ccccc2)cc1)c1ccc2c(c1)CCCC2CC(=O)O (racemic)	human GPR40 (Homo sapiens)	5.00 to 6.00
Cc1ccc(-c2nc(C)c(COc3ccc4c(c3)CCC4CC(=O)O)s2)cc1 (centres unmarked)	human GPR40 (Homo sapiens)	6.00 to 7.00

====

Listing of recorded EC50 by entry.
Molecular target: human GPR40 (Homo sapiens, UniProt O14842)
Sequence (O14842 whole entry): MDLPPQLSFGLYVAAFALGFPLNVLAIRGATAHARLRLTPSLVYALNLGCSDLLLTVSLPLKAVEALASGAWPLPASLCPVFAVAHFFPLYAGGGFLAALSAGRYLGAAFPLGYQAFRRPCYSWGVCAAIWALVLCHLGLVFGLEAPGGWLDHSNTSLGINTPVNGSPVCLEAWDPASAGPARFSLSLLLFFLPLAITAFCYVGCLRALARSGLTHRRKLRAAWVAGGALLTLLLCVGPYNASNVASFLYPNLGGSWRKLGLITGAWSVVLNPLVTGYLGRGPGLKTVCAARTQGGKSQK
Test: Cell-based aequorin assay using human GPR40
Details: CHO cells transfected with GPR40 and aequorin expression vectors; aequorin luminescence; activation of human GPR40; read-out: Relative EC50
Procedure: A cell-based aequorin assay may be employed to characterize the modulatory activity of compounds on the GPR40 signaling pathway. […] Aequorin luminescence measurements are made using an EG&G Berthold 96-well luminometer and the response is measured over a 20 second interval after cells and compounds are mixed. […]

compound	study_system	EC50
Cc1nc(-c2ccc(C(F)(F)F)cc2)sc1COc1ccc2c(c1)CCC[C@@H]2CC(=O)O	human GPR40 (Homo sapiens, UniProt O14842)	100 to 1000 nM
O=C(O)CC1CCCc2cc(CCc3ccc(-c4ccccc4)cc3)ccc21 (centres unmarked)	human GPR40 (Homo sapiens, UniProt O14842)	1000 to 10000 nM
COc1ccc(COc2ccc3c(c2)CCC(=O)N3CCC(=O)O)cc1	human GPR40 (Homo sapiens, UniProt O14842)	1000 to 10000 nM
CCCCOc1ccc(C)cc1-c1ccc(COc2ccc3c(c2)CC(C)C3CC(=O)O)cc1 (mixture of isomers)	human GPR40 (Homo sapiens, UniProt O14842)	1000 to 10000 nM
Cc1ccc(-c2nc(C)c(COc3ccc4c(c3)CCC(C)C4CC(=O)O)s2)cc1 (mixture of isomers)	human GPR40 (Homo sapiens, UniProt O14842)	1000 to 10000 nM

====

Molecular target: human GPR40 (Homo sapiens, UniProt O14842)
Assay: Cell-based aequorin assay using human GPR40
Settings: CHO cells transfected with GPR40 and aequorin expression vectors; aequorin luminescence; activation of human GPR40; read-out: Relative EC50
pEC50: −log10 of the molar value.
property: pEC50

molecule	measured_value
O=C(O)C[C@H]1CCCc2cc(OCc3cccc(-c4ccc(C(F)(F)F)cc4)c3)ccc21	5.00 to 6.00
Cc1cc(Cl)ccc1-c1cccc(COc2ccc3c(c2)CCC[C@@H]3CC(=O)O)c1	6.00 to 7.00
C=C1COc2cc(OCc3ccc(-c4cc(C)ccc4OCCCC)cc3)ccc2C1CC(=O)O (racemic)	6.00 to 7.00
CCCCOc1ccc(C)cc1-c1ccc(COc2ccc3c(c2)CCC[C@H]3CC(=O)O)cc1	> 7.00
O=C(O)CC1CCc2cc(OCc3cccc(-c4ccc(C(F)(F)F)cc4)c3)ccc21 (stereo not drawn)	5.00 to 6.00
Cc1cc(Cl)ccc1-c1cccc(COc2ccc3c(c2)C(=O)NC3CC(=O)O)c1 (racemic)	5.00 to 6.00
CC1CCc2cc(OCc3cccc(-c4ccc(C(F)(F)F)cc4)c3)ccc2C1CC(=O)O (mixture of isomers)	5.00 to 6.00
C=C1COc2cc(OCc3ccc(-c4cc(C)ccc4OCCCC)cc3)ccc2[C@@H]1CC(=O)O	6.00 to 7.00
CCOc1ccc(F)c(-c2ccc(COc3ccc4c(c3)CCCC4CC(=O)O)cc2)c1 (stereo in doubt)	5.00 to 6.00
CC1Cc2cc(OCc3cccc(-c4ccc(C(F)(F)F)cc4)c3)ccc2C1CC(=O)O (mixture of isomers)	5.00 to 6.00
CCOc1ccccc1-c1ccc(COc2ccc3c(c2)C(CC(=O)O)CCC3)cc1 (stereo not drawn)	5.00 to 6.00
CCCCOc1ccc(C)cc1-c1ccc(COc2ccc3c(c2)OCC(=C(C)C)C3CC(=O)O)cc1 (racemic)	6.00 to 7.00
CCOc1ccccc1-c1ccc(COc2ccc3c(c2)CCC3CC(=O)O)cc1 (stereo not drawn)	6.00 to 7.00
Cc1c(Cl)cccc1-c1cccc(COc2ccc3c(c2)OCC[C@H](C(=O)O)C3)c1	5.00 to 6.00
O=C(O)CC1CCCc2cc(OCc3cccc(-c4ccc(C(F)(F)F)cc4)c3)ccc21 (stereo not drawn)	6.00 to 7.00
COc1cccc(-c2ccc(COc3ccc4c(c3)CCC4CC(=O)O)cc2)c1 (stereo not drawn)	6.00 to 7.00
O=C(O)CCn1ccc2cc(OCc3cccc(-c4ccc(C(F)(F)F)cc4)c3)ccc21	5.00 to 6.00
CCCCOc1ccc(C)cc1-c1ccc(COc2ccc3c(c2)CCC(C)C3CC(=O)O)cc1 (mixture of isomers)	5.00 to 6.00
CCOc1ccc(F)c(-c2ccc(COc3ccc4c(c3)CCC[C@H]4CC(=O)O)cc2)c1	5.00 to 6.00
O=C(O)C[C@@H]1CCCc2cc(OCc3cccc(-c4ccc(C(F)(F)F)cc4)c3)ccc21	6.00 to 7.00
CCOc1cccc(-c2ccc(COc3ccc4c(c3)C(CC(=O)O)CCC4)cc2)c1 (stereo not drawn)	5.00 to 6.00
O=C(O)CC1c2ccc(OCc3cccc(-c4ccc(C(F)(F)F)cc4)c3)cc2OCc2conc21 (racemic)	5.00 to 6.00
Cc1c(Cl)cccc1-c1cccc(COc2ccc3c(c2)C(=O)NC3CC(=O)O)c1 (racemic)	5.00 to 6.00
CCCCOc1ccc(C)cc1-c1ccc(COc2ccc3c(c2)CCC3CC(=O)O)cc1 (racemic)	6.00 to 7.00
Cc1ccccc1/C=C/c1ccc2c(c1)CCCC2CC(=O)O (stereo not drawn)	5.00 to 6.00
O=C(O)CCn1ccc2cc(OCc3ccccc3)ccc21	5.00 to 6.00
C/C=C1/COc2cc(OCc3ccc(-c4cc(C)ccc4OCCCC)cc3)ccc2C1CC(=O)O (stereo not drawn)	6.00 to 7.00
COc1ccc(COc2ccc3c(c2)CCCC3CC(=O)O)cc1 (stereo not drawn)	5.00 to 6.00
COc1ccc(/C=C/c2ccc3c(c2)CCCC3CC(=O)O)cc1 (stereo not drawn)	5.00 to 6.00
O=C(O)Cn1ccc2cc(OCc3cccc(-c4ccc(C(F)(F)F)cc4)c3)ccc21	5.00 to 6.00
O=C(O)c1cc2ccc(OCc3cccc(Oc4ccccc4)c3)cc2oc1=O	5.00 to 6.00
C=C1COc2cc(OCc3sc(-c4ccc(C)cc4)nc3C)ccc2C1CC(=O)O (stereo not drawn)	> 7.00
COc1cccc(-c2ccc(COc3ccc4c(c3)CCC[C@@H]4CC(=O)O)cc2)c1	5.00 to 6.00
